Values compiled from the supplement of paper PMC8882468.

Tested on: HCI-012 (organoid from a breast cancer xenograft)
Assay: CTG-3D luminescence at 96 h relative to day-0 seeding control (ratio to day 0); higher = more growth / less cytotoxicity; PDxO 3D drug screen, 96 h, CTG-3D normalised to day-0 seeding control.
Conditions: 10 µM; days in culture: 162
PARAMETER: CTG-3D luminescence at 96 h
Just the number, please.

Consider the reported CTG-3D luminescence at 96 h for these molecules:
Data request: CTG-3D luminescence at 96 h of CN(Cc1cnc2nc(N)nc(N)c2n1)c1ccc(C(=O)N[C@@H](CCC(=O)O)C(=O)O)cc1 [methotrexate] on HCI-012?
Data returned: 1.12

Data request: CTG-3D luminescence at 96 h of CNC(=O)c1cccc(-c2ccc3c(N4CCOC[C@@H]4C)nc(N4CCOC[C@@H]4C)nc3n2)c1 [vistusertib] on HCI-012?
Data returned: 1.06

Data request: CTG-3D luminescence at 96 h of CC(C)(C(=O)NCC(F)(F)C(F)(F)F)C(=O)N[C@@H]1C(=O)Nc2ccccc2-c2ccccc21 on HCI-012?
Data returned: 2.59

Lab note: next molecule to report on.
Data request: CTG-3D luminescence at 96 h of CC(C)n1nc(-c2ccc3oc(N)nc3c2)c2c(N)ncnc21 [sapanisertib] on HCI-012?
Data returned: 0.846

###

Parameter CTG-3D luminescence at 96 h: see the listing below.
Test system: HCI-019 (organoid from a triple-negative breast cancer xenograft)
Test: CTG-3D luminescence at 96 h relative to day-0 seeding control (ratio to day 0); higher = more growth / less cytotoxicity; PDxO 3D drug screen, 96 h, CTG-3D normalised to day-0 seeding control.
Conditions: 100 µM; days in culture: 110
Just the number, please.

Data request: // returns reported CTG-3D luminescence at 96 h for input NC1(C(=O)N[C@@H](CCO)c2ccc(Cl)cc2)CCN(c2nc[nH]c3nccc2-3)CC1 [capivasertib]
Data returned: 0.332

Data request: // returns reported CTG-3D luminescence at 96 h for input CC(C)(C(=O)NCC(F)(F)C(F)(F)F)C(=O)N[C@@H]1C(=O)Nc2ccccc2-c2ccccc21
Data returned: 1.37

---
Data request: // returns reported CTG-3D luminescence at 96 h for input C=CC(=O)N1CCC[C@@H](n2nc(-c3ccc(Oc4ccccc4)cc3)c3c(N)ncnc32)C1 [ibrutinib]
Data returned: -0.00836

Data request: // returns reported CTG-3D luminescence at 96 h for input CC(C)n1nc(-c2ccc3oc(N)nc3c2)c2c(N)ncnc21 [sapanisertib]
Data returned: 0.0143

Data request: // returns reported CTG-3D luminescence at 96 h for input Cc1cc(Nc2ncc(Cl)c(Nc3ccccc3S(=O)(=O)C(C)C)n2)c(OC(C)C)cc1C1CCNCC1 [ceritinib]
Data returned: -0.00638

###

Test system: HCI-015 (organoid from a triple-negative breast cancer xenograft)
Assay: CTG-3D luminescence at 96 h relative to day-0 seeding control (ratio to day 0); higher = more growth / less cytotoxicity; PDxO 3D drug screen, 96 h, CTG-3D normalised to day-0 seeding control.
Details: 0.00025 µM; days in culture: 172
PARAMETER: CTG-3D luminescence at 96 h

Data request: // returns reported CTG-3D luminescence at 96 h for input O=C(/C=C/c1cccnc1)NCCCCC1CCN(C(=O)c2ccccc2)CC1
Data returned: 0.705

Data request: // returns reported CTG-3D luminescence at 96 h for input CCN1CCN(Cc2ccc(Nc3ncc(F)c(-c4cc(F)c5nc(C)n(C(C)C)c5c4)n3)nc2)CC1
Data returned: 1.6

---
Data request: // returns reported CTG-3D luminescence at 96 h for input C[C@@H]1COCCN1c1cc(C2([S@](C)(=N)=O)CC2)nc(-c2cc[nH]c3nccc2-3)n1
Data returned: 2.46

###

Tested on: HCI-002 (organoid from a triple-negative breast cancer xenograft)
Assay: CTG-3D luminescence at 96 h relative to day-0 seeding control (ratio to day 0); higher = more growth / less cytotoxicity; PDxO 3D drug screen (set 2), 96 h, CTG-3D normalised to day-0 seeding control.
Settings: 1 µM; days in culture: 127
Label Y for high-side CTG-3D luminescence at 96 h (at or above 0.9) and N for low-side CTG-3D luminescence at 96 h (below it).

Here are 3 compounds together with their reported answers.
Data request: Could you verify whether the entry CO[C@H]1C[C@@H]2CC[C@@H](C)[C@@](O)(O2)C(=O)C(=O)N2CCCC[C@H]2C(=O)O[C@H]([C@H](C)C[C@@H]2CC[C@@H](O)[C@H](OC)C2)CC(=O)[C@H](C)/C=C(\C)[C@@H](O)[C@@H](OC)C(=O)[C@H](C)C[C@H](C)/C=C/C=C/C=C/1C shows CTG-3D luminescence at 96 h of no less than 0.9?
Data returned: Y

Data request: Could you verify whether the entry CO[C@H]1C[C@@H]2CC[C@@H](C)[C@@](O)(O2)C(=O)C(=O)N2CCCC[C@H]2C(=O)O[C@H]([C@H](C)C[C@@H]2CC[C@@H](OCCO)[C@H](OC)C2)CC(=O)[C@H](C)/C=C(\C)[C@@H](O)[C@@H](OC)C(=O)[C@H](C)C[C@H](C)/C=C/C=C/C=C/1C shows CTG-3D luminescence at 96 h of no less than 0.9?
Data returned: Y

Data request: Could you verify whether the entry CC(=O)O[C@@]12CO[C@@H]1C[C@H](O)[C@@]1(C)C(=O)[C@H](O)C3=C(C)[C@@H](OC(=O)[C@H](O)[C@@H](NC(=O)OC(C)(C)C)c4ccccc4)C[C@@](O)([C@@H](OC(=O)c4ccccc4)[C@H]21)C3(C)C shows CTG-3D luminescence at 96 h of no less than 0.9?
Data returned: N

Switching to the query record.
Data request: Could you verify whether the entry Cc1c(CN2CCN(C(=O)[C@H](C)O)CC2)sc2c(N3CCOCC3)nc(-c3cnc(N)nc3)nc12 shows CTG-3D luminescence at 96 h of no less than 0.9?
Data returned: Y

###

Tested on: HCI-012
Experiment: CTG-3D luminescence at 96 h relative to day-0 seeding control (ratio to day 0); higher = more growth / less cytotoxicity; PDxO 3D drug screen (set 2), 96 h, CTG-3D normalised to day-0 seeding control.
Settings: 625 fM; days in culture: 284
Parameter CTG-3D luminescence at 96 h: see the listing below.
Just the number, please.

Data request: CTG-3D luminescence at 96 h of CO[C@H]1C[C@@H]2CC[C@@H](C)[C@@](O)(O2)C(=O)C(=O)N2CCCC[C@H]2C(=O)O[C@H]([C@H](C)C[C@@H]2CC[C@@H](OCCO)[C@H](OC)C2)CC(=O)[C@H](C)/C=C(\C)[C@@H](O)[C@@H](OC)C(=O)[C@H](C)C[C@H](C)/C=C/C=C/C=C/1C on HCI-012?
Data returned: 2.6

---
Data request: CTG-3D luminescence at 96 h of COc1cccc2c1C(=O)c1c(O)c3c(c(O)c1C2=O)C[C@@](O)(C(=O)CO)C[C@@H]3O[C@H]1C[C@H](N)[C@@H](O)[C@H](C)O1 [epirubicin] on HCI-012?
Data returned: 3.07

###

Parameter CTG-3D luminescence at 96 h: see the listing below.
Tested on: HCI-010 (organoid from a breast cancer xenograft)
Experiment: CTG-3D luminescence at 96 h relative to day-0 seeding control (ratio to day 0); higher = more growth / less cytotoxicity; PDxO 3D drug screen (set 2), 96 h, CTG-3D normalised to day-0 seeding control.
Conditions: 10 µM; days in culture: 164
Just the number, please.

Consider the reported CTG-3D luminescence at 96 h for these compounds:
Data request: // returns reported CTG-3D luminescence at 96 h for input CC(C)n1nc(-c2ccc3oc(N)nc3c2)c2c(N)ncnc21
Data returned: 0.245

Data request: // returns reported CTG-3D luminescence at 96 h for input CS(=O)(=O)CCNCc1ccc(-c2ccc3ncnc(Nc4ccc(OCc5cccc(F)c5)c(Cl)c4)c3c2)o1
Data returned: 0.353

Data request: // returns reported CTG-3D luminescence at 96 h for input O=C(c1cc(Cc2n[nH]c(=O)c3ccccc23)ccc1F)N1CCN(C(=O)C2CC2)CC1
Data returned: 0.88

---
Data request: // returns reported CTG-3D luminescence at 96 h for input CC(=O)c1c(C)c2cnc(Nc3ccc(N4CCNCC4)cn3)nc2n(C2CCCC2)c1=O
Data returned: 1.25

Data request: // returns reported CTG-3D luminescence at 96 h for input CC(=O)O[C@@]12CO[C@@H]1C[C@H](O)[C@@]1(C)C(=O)[C@H](O)C3=C(C)[C@@H](OC(=O)[C@H](O)[C@@H](NC(=O)OC(C)(C)C)c4ccccc4)C[C@@](O)([C@@H](OC(=O)c4ccccc4)[C@H]21)C3(C)C
Data returned: 0.646

###

Test system: HCI-001 (organoid from a triple-negative breast cancer xenograft)
Experiment: CTG-3D luminescence at 96 h relative to day-0 seeding control (ratio to day 0); higher = more growth / less cytotoxicity; PDxO 3D drug screen, 96 h, CTG-3D normalised to day-0 seeding control.
Conditions: 12.5 pM; days in culture: 327
PARAMETER: CTG-3D luminescence at 96 h
Just the number, please.

Data request: CTG-3D luminescence at 96 h of CCN(c1cc(C#CCN2CCOCC2)cc(C(=O)NCc2c(C)cc(C)[nH]c2=O)c1C)[C@H]1CC[C@H](N(C)CCOC)CC1 on HCI-001?
Data returned: 2.1

Data request: CTG-3D luminescence at 96 h of CNC(=O)c1cccc(-c2ccc3c(N4CCOC[C@@H]4C)nc(N4CCOC[C@@H]4C)nc3n2)c1 on HCI-001?
Data returned: 1.63

Data request: CTG-3D luminescence at 96 h of C[C@]12CC[C@@H]3c4ccc(O)cc4C[C@@H](CCCCCCCCC[S+]([O-])CCCC(F)(F)C(F)(F)F)[C@H]3[C@@H]1CC[C@@H]2O (some centres undefined) on HCI-001?
Data returned: 1.73

Data request: CTG-3D luminescence at 96 h of CN(Cc1cnc2nc(N)nc(N)c2n1)c1ccc(C(=O)N[C@@H](CCC(=O)O)C(=O)O)cc1 [methotrexate] on HCI-001?
Data returned: 1.75

Data request: CTG-3D luminescence at 96 h of CC(C)n1nc(-c2ccc3oc(N)nc3c2)c2c(N)ncnc21 on HCI-001?
Data returned: 1.36

---
Data request: CTG-3D luminescence at 96 h of NC1(C(=O)N[C@@H](CCO)c2ccc(Cl)cc2)CCN(c2nc[nH]c3nccc2-3)CC1 on HCI-001?
Data returned: 1.71

Data request: CTG-3D luminescence at 96 h of C[C@@H]1COCCN1c1cc(C2([S@](C)(=N)=O)CC2)nc(-c2cc[nH]c3nccc2-3)n1 on HCI-001?
Data returned: 1.41

Data request: CTG-3D luminescence at 96 h of C=CC(=O)N1CCC[C@@H](n2nc(-c3ccc(Oc4ccccc4)cc3)c3c(N)ncnc32)C1 on HCI-001?
Data returned: 1.45

Data request: CTG-3D luminescence at 96 h of CC(C)(C(=O)NCC(F)(F)C(F)(F)F)C(=O)N[C@@H]1C(=O)Nc2ccccc2-c2ccccc21 on HCI-001?
Data returned: 1.38
